B1: Calcium-binding protein 2, residues 155 to 219; numbered along this chain, Q9NPB3 (parent)
chain: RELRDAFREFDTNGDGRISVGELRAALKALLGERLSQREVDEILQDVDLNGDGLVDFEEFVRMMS

Variants of: B1
test_method_notes: abundance fitness (aPCA) (normalised: wild type 0, dead -1); higher = more abundant; growth selection in yeast, the domain comes from the species named
experimental_parameters: Homo sapiens
# label = y if abundance fitness >= -0.2 else n

Study these solved cases before continuing.
mutation_id: R38Y
class_label: y
--
mutation_id: R62L
class_label: n
--
mutation_id: D52L
class_label: y
--
mutation_id: A29Y
class_label: n
--
mutation_id: A26E
class_label: n

[ask] Given `L35E` , state whether its abundance fitness is at least -0.2.
[reply] y

[ask] Has `V20L` a recorded abundance fitness greater than or equal to -0.2?
[reply] y
